Tested on: rat heart tissue
Test: GENECALLING differential gene expression analysis after dosing of serotonin modulating agents
Type: in vivo, Sprague Dawley rats
Conditions: CARDIOTOX 115, GenBank M19936
# Effects on Transcription Level: Sulfated glycoprotein 1 (SGP-1) annotations
test readout: Effects on Transcription Level: Sulfated glycoprotein 1 (SGP-1)

compound: CCNC(C)Cc1cccc(C(F)(F)F)c1 (stereo not drawn) [fenfluramine]
val: −2.0 fold
--
compound: CCN[C@@H](C)Cc1cccc(C(F)(F)F)c1 [dexfenfluramine]
val: −1.7 fold
--
compound: CNCCC(Oc1ccc(C(F)(F)F)cc1)c1ccccc1 (stereo not drawn) [fluoxetine]
val: −2.1 fold
--
compound: CN1C[C@H](C(=O)N[C@]2(C)O[C@@]3(O)[C@@H]4CCCN4C(=O)[C@H](Cc4ccccc4)N3C2=O)C[C@@H]2c3cccc4[nH]cc(c34)C[C@H]21 [dihydroergotamine]
val: −1.7 fold
--
compound: CC(C)CC(N(C)C)C1(c2ccc(Cl)cc2)CCC1 (stereo not drawn) [sibutramine]
val: −2.3 fold
--
compound: CNS(=O)(=O)Cc1ccc2[nH]cc(CCN(C)C)c2c1 [sumatriptan]
val: −1.8 fold

----------
# Effects on Transcription Level: Plasma membrane Ca2 + ATPase-isoform 1 annotations
Tested on: rat heart tissue
Assay: GENECALLING differential gene expression analysis after dosing of serotonin modulating agents
Format: in vivo, Sprague Dawley rats
Conditions: CARDIOTOX 9, GenBank J03753
test readout: Effects on Transcription Level: Plasma membrane Ca2 + ATPase-isoform 1 (fold)

molecule: CCNC(C)Cc1cccc(C(F)(F)F)c1 (stereo not drawn)
target desc: rat heart tissue
val: −1.3

molecule: CN1C[C@H](C(=O)N[C@]2(C)O[C@@]3(O)[C@@H]4CCCN4C(=O)[C@H](Cc4ccccc4)N3C2=O)C[C@@H]2c3cccc4[nH]cc(c34)C[C@H]21 [dihydroergotamine]
target desc: rat heart tissue
val: −1.4

molecule: CNS(=O)(=O)Cc1ccc2[nH]cc(CCN(C)C)c2c1
target desc: rat heart tissue
val: −1.6

molecule: CCN[C@@H](C)Cc1cccc(C(F)(F)F)c1
target desc: rat heart tissue
val: −1.6

molecule: CNCCC(Oc1ccc(C(F)(F)F)cc1)c1ccccc1 (stereo not drawn)
target desc: rat heart tissue
val: −1.1

----------
System: rat heart tissue
Assay: GENECALLING differential gene expression analysis after dosing of serotonin modulating agents
Assay type: in vivo, Sprague Dawley rats
Conditions: LD10 dose for three days
Could you please mark 1 for values of Effects on Transcription Level: Novel gene fragment, 61 bp (CARDIOTOX 134) below -2 fold and 0 for values at or above it?

compound: CCN[C@@H](C)Cc1cccc(C(F)(F)F)c1
class: 0

compound: CCNC(C)Cc1cccc(C(F)(F)F)c1 (stereo not drawn)
class: 1

compound: CNS(=O)(=O)Cc1ccc2[nH]cc(CCN(C)C)c2c1
class: 1

compound: CNCCC(Oc1ccc(C(F)(F)F)cc1)c1ccccc1 (stereo not drawn)
class: 0

compound: CN1C[C@H](C(=O)N[C@]2(C)O[C@@]3(O)[C@@H]4CCCN4C(=O)[C@H](Cc4ccccc4)N3C2=O)C[C@@H]2c3cccc4[nH]cc(c34)C[C@H]21 [dihydroergotamine]
class: 0

----------
System: rat heart tissue
Experiment: GENECALLING differential gene expression analysis after dosing of serotonin modulating agents
Assay type: in vivo, Sprague Dawley rats
Settings: CARDIOTOX 55, GenBank D13062
test readout: Effects on Transcription Level: Adenylate kinase 3

compound: CNCCC(Oc1ccc(C(F)(F)F)cc1)c1ccccc1 (stereo not drawn)
val: +1.3 fold
--
compound: CCNC(C)Cc1cccc(C(F)(F)F)c1 (stereo not drawn)
val: +1.6 fold
--
compound: CN1C[C@H](C(=O)N[C@]2(C)O[C@@]3(O)[C@@H]4CCCN4C(=O)[C@H](Cc4ccccc4)N3C2=O)C[C@@H]2c3cccc4[nH]cc(c34)C[C@H]21 [dihydroergotamine]
val: +1.5 fold
--
compound: CCN[C@@H](C)Cc1cccc(C(F)(F)F)c1
val: +1.5 fold
--
compound: CC(C)CC(N(C)C)C1(c2ccc(Cl)cc2)CCC1 (stereo not drawn)
val: +1.4 fold
--
compound: CNS(=O)(=O)Cc1ccc2[nH]cc(CCN(C)C)c2c1
val: +1.5 fold
